System: MET;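 also: KINOMEscan kinase panel screen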
PARTICULARS: concentration: 1 μM, replicates: in singlicate; n = 1
MEASURE_NAME: %Inh (%)
Numeric only. Scale: %

Q: Respond only with %Inh recorded for `COc1cc(Nc2ncc3c(C)nc(-c4cc5ccccc5[nH]4)n3n2)cc(OC)c1OC`
A: 0

Q: Answer with reported %Inh of `CCS(=O)(=O)c1ccc(OC)c(Nc2nccc(-c3c(-c4cccc(NC(=O)c5c(F)cccc5F)c4)nn4ncccc34)n2)c1`
A: 2

Q: Give recorded %Inh. `CC(C)(C)c1ccc2nccc(Nc3cccc(O)c3)c2c1`
A: 0

Q: Give the reported value of %Inh for this record: `c1ccc(Oc2ccc(Nc3ccnc4cc(-c5ccc(CNCCN6CCOCC6)o5)ccc34)cc2)nc1`
A: 0

Q: Identify measured %Inh corresponding to `O=C(Nc1ccccc1F)NC1CCN(c2ccnc(Nc3ccc(F)cc3)n2)CC1`
A: 0

Numbers sourced from paper PMC5540273.
